Entries annotated with measured PBM binding z-score
tested on: PPARg:RXRa 270nM:90nM, anti-RXR (NR concentration 270 nM, RXRa partner concentration 90 nM); assay: PBM binding z-score (relative to random genomic background probes); higher = stronger binding; sequences stand for … in GC…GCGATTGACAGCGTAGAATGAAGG
Just the number, please, no unit after it.

Check out these entries, answers already filled in.
>>> df
                       sequence_entry  measurement
0  CCTACTGGGCCAAAGGTCAGTGATTCCAATGCTC         10.2
1  ATACCAAGGTCATCGTGAGGTCGTTGATACTAAC          5.6

Inquiry: Please give the documented PBM binding z-score of `TAGCCTAGGTCATGCGGGTCAGTATAGTGTCGGC`
Reply text: 3.43

Inquiry: Please give the documented PBM binding z-score of `CCGAGTAGGTTATGAGGGGGCATTCAGTGCGAAT`
Reply text: 3.12

Inquiry: Please give the documented PBM binding z-score of `ATATGTAGGTTAGGGTCAATCAGAAAGTAGGGAA`
Reply text: 6.41

Inquiry: Please give the documented PBM binding z-score of `AGTCAAAGTTGATCTAGGTAACGTAAGATATGCT`
Reply text: 1.2

Just for reference, the supplement of paper PMC6555819 is where these values come from.
